System: FHC
protocol: Cytotoxicity against human FHC cells assessed as reduction in cell viability after 24 hrs by MTT assay
Format: cell-based
Kindly apply the following: condition met if IC50 is less than 70 µg/mL, condition not met in every other case.

compound: COc1cc2nc(Cl)nc(NS(C)(=O)=O)c2cc1OC
assigned class: condition not met
--
compound: COc1cc2nc(N3CCOCC3)nc(NS(=O)(=O)C3CC3)c2cc1OC
assigned class: condition not met
--
compound: COc1cc2nc(N3CCCC3)nc(NS(=O)(=O)C3CC3)c2cc1OC
assigned class: condition met
--
compound: COc1cc2nc(Cl)nc(NS(=O)(=O)c3ccccc3)c2cc1OC
assigned class: condition not met
--
compound: COc1cc2nc(Cl)nc(NS(=O)(=O)c3cccs3)c2cc1OC
assigned class: condition not met
--
compound: COc1cc2nc(Cl)nc(NS(=O)(=O)c3ccc(C)cc3C)c2cc1OC
assigned class: condition not met
--
compound: COc1cc2nc(N3CCCC3)nc(NS(=O)(=O)c3ccc(C)cc3)c2cc1OC
assigned class: condition met
--
compound: COc1cc([C@@H]2c3cc4c(cc3[C@@H](O[C@@H]3O[C@@H]5CO[C@@H](C)O[C@H]5[C@H](O)[C@H]3O)[C@H]3COC(=O)[C@H]23)OCO4)cc(OC)c1O [ETOPOSIDE]
assigned class: condition met
